- System: Plasmodium berghei
- assay procedure: Screen against P. berghei liver stage (PbLuc), transformed with Luciferase, at 10uM
- Format: functional, HepG2
- conditions used: tested at 10 uM
Out of some 69,000 compounds screened, about 8,600 (12%) showed an effect of 50% or more. What follows is part of a selection rich in strong results, with near analogues and random picks from the rest.
Record form. Attribute: INHIBITION. Fill in for each entry.
Lab book: enter the figure in %, no units written.

input: Which value of INHIBITION has been reported for O=c1[nH]ncc(NCCOc2ccc3c(c2)CCC3)c1Cl in the records?
output: 77.1

input: Then what about the compound CC(=O)c1cc2ncc(C(=O)NC3CCCC3)cc2[nH]1 ?
output: 8.52

input: Then what about the compound CCS(=O)(=O)CCN(C)Cc1cc(C)ccc1OC ?
output: 21.1

input: Then what about the compound COc1ccc(-c2n[nH]cc2CN(C)Cc2nnc(C)o2)c(F)c1 ?
output: 23.8

input: Then what about the compound O=c1[nH]ncc(NCCOc2cccc(Br)c2)c1Cl ?
output: 15.6

input: Then what about the compound NC(=O)CCc1cccc(C2CCNCC2)n1 ?
output: 6.26

input: Then what about the compound CN(C)c1cc(C(=O)Nc2cccnc2N2CCSCC2)ccn1 ?
output: 2.97

input: Then what about the compound CO[C@H]1CCN(C2CCOCC2)C[C@@H]1Cc1ccccc1 ?
output: -8.51

input: Then what about the compound Cc1n[nH]c(C)c1NC(=O)CN1CCCC1c1c(C)nn(C)c1C (centres undefined) ?
output: 9.54

* * *

- Test system: Plasmodium berghei
- assay procedure: Screen against P. berghei liver stage (PbLuc), transformed with Luciferase, at 10uM
- Assay type: functional, HepG2
- conditions used: tested at 10 uM
Hit rate of the full screen: of about 69,000 compounds, about 8,600 (12%) showed an effect of 50% or more. This is one part of a sample in which strong results are shown more often than they occur.
Record form. Attribute: INHIBITION. Fill in for each entry.
Lab book: enter the figure in %, no units written.

input: Which value of INHIBITION has been reported for O=C(NC1CCCCC1)N1CCC(n2cc(-c3ccccn3)nn2)CC1 in the records?
output: 83.5

input: Then what about the compound NCC(c1ccc(Cl)cc1)N1CCc2sccc2C1 (centres undefined) ?
output: 71.2

input: Then what about the compound O=C(NCc1ccco1)N1CCOC(c2ccccc2Cl)C1 (centres undefined) ?
output: 8.12

input: Then what about the compound Cc1nn(C)cc1C1=NS(=O)(=O)N(C)C(C(=O)Nc2ccc(Br)cc2)=C1 ?
output: 82.4

input: Then what about the compound Cc1nc(N2CCCC2)ncc1C(=O)Nc1ccc(Br)cc1 ?
output: -10.2

input: Then what about the compound Cc1cc(=O)n(CC(=O)Nc2ccc(Cl)cc2)nc1C ?
output: 25

input: Then what about the compound CSc1ccc(C(CNC(C)=O)N2CCc3sccc3C2)cc1 (centres undefined) ?
output: 34.9

input: Then what about the compound O=C(NCc1ccco1)N1CCC(n2cc(-c3ccccn3)nn2)CC1 ?
output: 65.6

input: Then what about the compound Cc1cc(CN2CCN(C(=O)NCc3ccco3)CC2)no1 ?
output: 31.2

input: Then what about the compound Cn1cc(NC(=O)CNC(=O)N2CCN(c3ccc(Cl)cc3)CC2)cn1 ?
output: 28.5

input: Then what about the compound O=C1CCC2(CCN(Cc3cscn3)CC2)CN1C1CCC(O)CC1 (centres undefined) ?
output: -60.7

input: Then what about the compound CN1CC(=O)N(c2ccsc2)CC12CCN(C(=O)N1CCCC1)C2 (centres undefined) ?
output: -5.05

input: Then what about the compound CSc1ccc(C(CN)N2CCc3sccc3C2)cc1 (centres undefined) ?
output: 66.3

input: Then what about the compound O=C(NC1CCCCC1)N1CCC(n2cc3[nH]cccc-3c2=O)CC1 ?
output: 36.5

input: Then what about the compound CCC(=O)N1CCN(CCn2cccn2)c2ncccc2C1 ?
output: 43

input: Then what about the compound CC1CCCCN1C(=O)c1n[nH]c(=O)c2ccccc12 (centres undefined) ?
output: 60.2

input: Then what about the compound Cc1ccc(C(=O)N(C)CC(=O)NCC(F)(F)F)cn1 ?
output: 42

input: Then what about the compound CCc1n[nH]c(C2CN(C(=O)c3cnn(CC)c3)CCO2)n1 (centres undefined) ?
output: -8.11

input: Then what about the compound COC1CCCOC12CCN(C(=O)NCc1ccco1)CC2 (centres undefined) ?
output: 4.52

input: Then what about the compound Cc1nc(CN2CC[C@H](OCC3CC3)[C@@H]2Cc2cccnc2)cs1 ?
output: -3.33

input: Then what about the compound Cc1cc(NC(=O)Cn2ncc(Br)c2C)no1 ?
output: 15.9

input: Then what about the compound CC(=O)Nc1ccc(Oc2cccc(CN3CCCC3)c2)cc1 ?
output: 27.9

input: Then what about the compound COC(C)(C)CC(C)NCc1cc(-c2ccco2)on1 (centres undefined) ?
output: 29.2

input: Then what about the compound COCCC(=O)N1CCC2(CC1)CC(c1ccccc1)CN(C1CC1)C2 (centres undefined) ?
output: 14

input: Then what about the compound Cc1nc(C)c(CN2CCC(N(C)Cc3noc(C4CC4)n3)C2)s1 (centres undefined) ?
output: -19.9

input: Then what about the compound NCC(c1ccccc1)N1CCc2sccc2C1 (centres undefined) ?
output: -41.8

input: Then what about the compound Cc1c(C2=NS(=O)(=O)N(C)C(C(=O)Nc3ccc(Br)cc3)=C2)cnn1C ?
output: 49.9

input: Then what about the compound O=C(C1CCC1)N1C[C@@H]2CCN(c3cccnc3)C[C@@H]2C1 ?
output: 5.96

input: Then what about the compound CN1CCN(c2cc(CNC(=O)c3ccc(Cl)o3)ccn2)CC1 ?
output: 38.45

input: Then what about the compound COC(=O)C(C)(C)NC(=O)C1CC(=O)N(CC(C)C)C1 (centres undefined) ?
output: -22.1

input: Then what about the compound COc1ccc(CN2CCCC2)cc1Oc1cccc(C#N)n1 ?
output: 57.5

input: Then what about the compound c1ccc(C2CN(C3CC3)CC3(CCN(Cc4cscn4)CC3)C2)cc1 (centres undefined) ?
output: 70.1

input: Then what about the compound Cc1nc(CNC(=O)NCC2(C)CCCc3ccccc32)no1 (centres undefined) ?
output: -21.9

input: Then what about the compound CNCc1cn(C2CCN(C(=O)NCc3ccco3)CC2)nn1 ?
output: 71.2

* * *

- Tested on: Plasmodium berghei
- assay procedure: Screen against P. berghei liver stage (PbLuc), transformed with Luciferase, at 10uM
- Assay type: functional, HepG2
- conditions used: tested at 10 uM
Among all 69,000 compounds or so, about 8,600 (12%) showed an effect of 50% or more. The list comes from a sample in which strong results are over-represented; it also holds close analogues and randomly drawn compounds.
measured attribute: INHIBITION

input: Which value of INHIBITION has been reported for CCN(CC)C(=O)c1cnc(Sc2nccn2C)c(Cl)c1 in the records?
output: 48%

input: Then what about the compound CCS(=O)(=O)N1CC[C@H]2O[C@H](c3nc(C)no3)CC[C@H]21 ?
output: 18.2%

input: Then what about the compound CN1CCCC(c2nc3c([nH]2)CC(C)(C)CNC3=O)C1 (stereo not drawn) ?
output: -67.3%

input: Then what about the compound CC(CNC(=O)c1cc(Cl)ccc1I)N1CCCC1 (stereo not drawn) ?
output: 30.5%

input: Then what about the compound CCc1csc(C2CCCN(C(=O)c3ccnc(N(C)C)c3)C2)n1 (stereo not drawn) ?
output: 27.6%

input: Then what about the compound COCCN1C[C@H]2CCN(c3ncccn3)CC[C@H]2S1(=O)=O ?
output: 82.9%

input: Then what about the compound COc1cc2c(nn1)CCN(Cc1nnc(Cc3ccccc3)o1)C2 ?
output: 88.5%

input: Then what about the compound O=C(c1ncccn1)N1CCC2(CC1)COC(COc1ccccn1)C2 (stereo not drawn) ?
output: 12.6%

input: Then what about the compound CCN1C[C@H]2CCN(c3ncccn3)CC[C@H]2S1(=O)=O ?
output: -41.6%

input: Then what about the compound Cc1cccc(OC2CCN(c3ncc(C#N)cc3Cl)CC2)n1 ?
output: 12.4%

input: Then what about the compound CC1(C)CNC(=O)c2nc(CCN3CCCCC3CO)[nH]c2C1 (stereo not drawn) ?
output: 24.4%

input: Then what about the compound COc1cc(C(=O)Nc2nc(C)no2)ccc1OC(F)F ?
output: 81.1%

input: Then what about the compound COc1cc(C(=O)Nc2nc(C)no2)ccc1C ?
output: 63.6%

* * *

- System: Plasmodium berghei
- assay procedure: Screen against P. berghei liver stage (PbLuc), transformed with Luciferase, at 10uM
- Format: functional, HepG2
- conditions used: tested at 10 uM
Among all 69,000 compounds or so, about 8,600 (12%) showed an effect of 50% or more. The entries come from a sample that favours strong results as a whole.
Entries get a class label from measured INHIBITION. See ranges: 0 (below 10%), 1 (10% to below 40%), 2 (40% or more)

input: The entry to classify is Cc1ccoc1C(=O)NC1CCN(Cc2csc3c(F)cccc23)CC1 ; which class holds it?
output: 2

input: Then what about the compound CCn1nc2c(cc1=O)CN(CCCN1CCCC1=O)CC2 ?
output: 1

input: Then what about the compound O=C(O)[C@@H]1CN(C(=O)c2ccc(Cl)cc2)C[C@H]1c1cccc(F)c1 ?
output: 1

input: Then what about the compound CCCS(=O)(=O)N1CCN(c2cc(-n3cccc3)nc(C)n2)CC1 ?
output: 1

input: Then what about the compound COc1ccccc1CN(C)C(=O)CN1C(=O)OC[C@@H]1c1ccccc1 ?
output: 1

input: Then what about the compound CN(Cc1csc(-c2cccs2)n1)C(=O)CN1CCOC1=O ?
output: 2

input: Then what about the compound COc1cccc(OCCCc2cncc(C(N)=O)c2)c1 ?
output: 0

input: Then what about the compound COc1ccc(OCCNc2cccc(C(=O)N3CCOCC3)c2)cc1 ?
output: 0

input: Then what about the compound Cc1cc(S(C)(=O)=O)c(C)c(S(=O)(=O)N2CCCC(C)C2)c1 (stereo not drawn) ?
output: 2

input: Then what about the compound Cc1cc(N2CCN(CCO)CC2)nc(-c2ccncc2)n1 ?
output: 1

input: Then what about the compound CC(C)C(=O)NC1CCN(Cc2cccc3c2OCCO3)CC1 ?
output: 0

input: Then what about the compound Cc1ncsc1CCN(C)C(=O)CN1C(=O)OC[C@@H]1c1ccccc1 ?
output: 2

input: Then what about the compound COCCN1C(=O)C[C@@H]2[C@H]1CCN2C(=O)c1ccc[nH]1 ?
output: 0

input: Then what about the compound O=C(O)[C@@H]1CN(C(=O)c2ccc(F)c(F)c2)C[C@H]1c1cccc(F)c1 ?
output: 2

input: Then what about the compound CCN(Cc1ccc(O)c(C(=O)O)c1)CC1CCOCC1 ?
output: 0

input: Then what about the compound Cc1ccc(-c2ccccc2CC2(C(=O)NC(C)C)CCCNC2)cc1 (stereo not drawn) ?
output: 2

input: Then what about the compound O=C(c1ccccc1)N1Cc2nccn2CC(Cn2ncccc2=O)C1 (stereo not drawn) ?
output: 1

input: Then what about the compound Cc1cc(C)n(CC(=O)N(C)Cc2csc(-c3cccs3)n2)c(=O)n1 ?
output: 1

input: Then what about the compound CO[C@H]1CCN(S(=O)(=O)c2cn(C)cn2)[C@H]1Cc1cnn(C)c1 ?
output: 1

input: Then what about the compound O=C(O)c1ccnc(-c2ccnc(N3CCCCCC3)n2)c1 ?
output: 0

input: Then what about the compound CCOCCC(=O)N1C[C@@H]2CC[C@H]1CN(c1ncccn1)C2 ?
output: 2

input: Then what about the compound O=C(O)[C@@H]1CN(C(=O)c2ccc(O)cc2)C[C@H]1c1cccc(F)c1 ?
output: 0

input: Then what about the compound CC(C)NC(=O)N1Cc2nccn2CC(CN2CCCC2)C1 (stereo not drawn) ?
output: 2

Cited source: ChEMBL document CHEMBL4513216
